- System: S. aureus Smith
- experiment_notes: Antibacterial activity (MIC), S. aureus
- Format: cell-based
- test_settings: Staphylococcus aureus, Table 2; S. aureus Smith; read-out: Antimicrobial MIC [μM] S. aureus
quantity_measured: MIC

[in] Output measured MIC for this item: `CC1(C)COc2c(NCCCc3ccccc3)c(F)c(N)c3c(=O)c(C(=O)O)cn(c23)C1`
[out] 0.5 to 10 µM

[in] Assign MIC to the following record: `CC(C)OCCCNc1c(F)c(N)c2c(=O)c(C(=O)O)cn3c2c1OC[C@@H]3C`
[out] 0.5 to 10 µM

[in] Tell me measured MIC for `CC(C)C[C@H]1COc2c(NCCCc3ccccc3)c(F)c(N)c3c(=O)c(C(=O)O)cn1c23` please.
[out] 10 to 50 µM

[in] For the compound `C[C@@H]1COc2c(NCCCn3cnc4ccccc43)c(F)c(N)c3c(=O)c(C(=O)O)cn1c23` , give its measured MIC value.
[out] 10 to 50 µM

[in] Annotate the compound `COc1c(NCCNc2ccccn2)c(Cl)c(N)c2c(=O)c(C(=O)O)cn(C3CC3)c12` with its measured MIC.
[out] 0.5 to 10 µM

====

Please provide measured pIC50 for the entries that follow.
- assay_system: recombinant full-length human GSK3β (Homo sapiens)
- Construct: recombinant full-length human GSK3β (Upstate); purchased Upstate
- Sequence (P49841 whole entry): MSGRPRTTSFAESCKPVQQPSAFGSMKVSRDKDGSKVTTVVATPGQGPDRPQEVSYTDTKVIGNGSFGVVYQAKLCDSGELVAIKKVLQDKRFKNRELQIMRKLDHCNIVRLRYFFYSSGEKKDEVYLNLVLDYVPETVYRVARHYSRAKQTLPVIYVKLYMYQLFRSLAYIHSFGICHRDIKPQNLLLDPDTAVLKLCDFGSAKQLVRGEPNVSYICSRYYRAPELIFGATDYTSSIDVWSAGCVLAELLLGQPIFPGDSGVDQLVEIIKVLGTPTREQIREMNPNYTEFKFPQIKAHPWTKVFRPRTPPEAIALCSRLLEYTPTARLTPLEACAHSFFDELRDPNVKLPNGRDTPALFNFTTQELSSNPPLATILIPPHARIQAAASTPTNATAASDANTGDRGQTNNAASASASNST
- experiment_notes: Luciferase-coupled cell-free GSK3β kinase assay
- Type: biochemical
- test_settings: Table 2
pIC50: −log10 of the molar value.

[in] Provide only the value of recorded pIC50 for Cc1ccc2nc(C)cc(NCCNc3c(F)c(N)c4c(=O)c(C(=O)O)cn5c4c3OC[C@@H]5C)c2c1 [Example 100]
[out] > 7.00

[in] Assign pIC50 to the following record: C[C@H]1COc2c(NCCCNC(=O)c3ccccn3)c(F)c(N)c3c(=O)c(C(=O)O)cn1c23 [Example 117]
[out] > 7.00

[in] Supply measured pIC50 of O=C(O)c1cn(C2CC2)c2c(F)c(NCCNc3ccccn3)c(F)c(S)c2c1=O [Example 131] in your reply.
[out] > 7.00

Reference for the values: patent US8063221B2
